Target: tOmpA, the eight-stranded transmembrane domain of OmpA (residues 1 to 177)
Assay: NMR quantification of Skp-bound tOmpA after complex assembly (holdase assay); excess of denatured [U-2H,15N]-tOmpA added dropwise to unlabeled Skp in 20 mM MES pH 6.5, 150 mM NaCl, aggregate spun down, tOmpA signals in 2D [15N,1H]-TROSY of the supernatant, 37°C, normalised to Skp(WT)
Assignment: determine reported Skp activity (% of WT), amount of Skp-bound tOmpA for the given binders.

// query # input binder: Skp(A103L) (natural protein, E. coli, UniProt P0AEU7 21-161, looked up, Monomer-trimer equilibrium essentially as the wild type; source: E. coli BL21-(λ DE3)-Lemo, purified (Ni-NTA, SEC); not shown: His6, N-terminal, kept) ADKIAIVNMGSLFQQVAQKTGVSNTLENEFKGRASELQRMETDLQAKMKKLQSMKAGSDRTKLEKDVMAQRQTFAQKAQAFEQDRARRSNEERGKLVTRIQTLVKSVANSQDIDLVVDANAVAYNSSDVKDITADVLKQVK ; wanted: its Skp activity (% of WT), amount of Skp-bound tOmpA
// result 100 % of WT

// query Can you handle Skp(A103R) (natural protein, E. coli, UniProt P0AEU7 21-161, looked up, Monomer-trimer equilibrium shifted toward the monomer; source: E. coli BL21-(λ DE3)-Lemo, purified (Ni-NTA, SEC); not shown: His6, N-terminal, kept) ADKIAIVNMGSLFQQVAQKTGVSNTLENEFKGRASELQRMETDLQAKMKKLQSMKAGSDRTKLEKDVMAQRQTFAQKAQAFEQDRARRSNEERGKLVTRIQTRVKSVANSQDIDLVVDANAVAYNSSDVKDITADVLKQVK next?
// result 87 % of WT

// query Entry to check: Skp(A108L) (natural protein, E. coli, UniProt P0AEU7 21-161, looked up, Monomer-trimer equilibrium strongly shifted toward the monomer; also called Skp(108L); source: E. coli BL21-(λ DE3)-Lemo, purified (Ni-NTA, SEC); not shown: His6, N-terminal, kept) ADKIAIVNMGSLFQQVAQKTGVSNTLENEFKGRASELQRMETDLQAKMKKLQSMKAGSDRTKLEKDVMAQRQTFAQKAQAFEQDRARRSNEERGKLVTRIQTAVKSVLNSQDIDLVVDANAVAYNSSDVKDITADVLKQVK
// result 55 % of WT

// query And then Skp(WT), seventeen kilodalton protein, periplasmic chaperone of Escherichia coli (natural protein, E. coli, UniProt P0AEU7 21-161, looked up, Stands in a monomer-trimer equilibrium; the active form is the homotrimer; The thrombin-cleavable His6-tag of pET28b was not cleaved; Isotope-labelled for NMR in some samples; source: E. coli BL21-(λ DE3)-Lemo, purified (Ni-NTA, SEC); not shown: His6, N-terminal, kept) ADKIAIVNMGSLFQQVAQKTGVSNTLENEFKGRASELQRMETDLQAKMKKLQSMKAGSDRTKLEKDVMAQRQTFAQKAQAFEQDRARRSNEERGKLVTRIQTAVKSVANSQDIDLVVDANAVAYNSSDVKDITADVLKQVK , what is it?
// result 100 % of WT

// query Now the binder Skp(A108R) (natural protein, E. coli, UniProt P0AEU7 21-161, looked up, Fully monomeric up to 1 mM; source: E. coli BL21-(λ DE3)-Lemo, purified (Ni-NTA, SEC); not shown: His6, N-terminal, kept) ADKIAIVNMGSLFQQVAQKTGVSNTLENEFKGRASELQRMETDLQAKMKKLQSMKAGSDRTKLEKDVMAQRQTFAQKAQAFEQDRARRSNEERGKLVTRIQTAVKSVRNSQDIDLVVDANAVAYNSSDVKDITADVLKQVK
// result 1 % of WT
